All figures here come from PubChem BioAssay (NCATS).

- protocol details: qHTS of pediatric cancer cell lines to identify multiple opportunities for drug repurposing: Primary screen for SK-N-SH cells (AID 1347098); further: nearly all actives have a fitted effect of over 65% in size
- measurement context: SK-N-SH viability, CellTiter-Glo luminescence, 48 h; series mostly up to 57 µM
Records with an inconclusive call do not appear. Calls of active or inactive are those of the source. The call rests on the fitted dose curve; in most records, active means well fitted cell-killing curve with a large enough effect; inconclusive means small, poorly fitted or top-dose-only effect; inactive means no such curve, though single readings can be large or run the other way.
Respond using exactly one of the listed classes: y for active, n for inactive

compound=CN(C)CCn1nnnc1SCC1=C(C(=O)O)N2C(=O)[C@@H](NC(=O)Cc3csc(N)n3)[C@H]2SC1 class_assignment=n
compound=CC(=O)c1ccc(OCC(=O)N2CCCCC2)cc1 class_assignment=n
compound="CC(C(=O)O)c1ccc(C(=O)c2ccccc2)s1 (stereo not drawn)" class_assignment=n
compound=S=c1[nH]c2ccccc2s1 class_assignment=n
compound=CCCCCCCCCCCCCCCC(=O)OC(C)C class_assignment=n
compound=Cc1[nH]cnc1CN1CCc2c(c3ccccc3n2C)C1=O class_assignment=n
compound=CC(C)OC(=O)c1cc(C(=O)OC(C)C)cc([N+](=O)[O-])c1 class_assignment=n
compound=CCOc1ccc2nc(S(N)(=O)=O)sc2c1 class_assignment=n

Q: Which outcome was entered for the compound CCCCCCCCCCCC(=O)[O][Sn]([CH2]CCC)([CH2]CCC)[O]C(=O)CCCCCCCCCCC in this test?
Result: n

Q: Which outcome was entered for the compound O=C(OCc1ccccc1)c1ccccc1 in this test?
Result: n

Q: Which outcome was entered for the compound Nc1ccc(O)c(C(=O)O)c1 in this test?
Result: n

Q: Which outcome was entered for the compound N=C(N)N in this test?
Result: n

Q: Which outcome was entered for the compound C#CC1(O)CC[C@H]2[C@@H]3CCC4=CCCC[C@@H]4[C@H]3CC[C@@]21C (stereo partly drawn) in this test?
Result: y

====

- Tested on: OV90
- protocol details: Primary qHTS to identify gynecologic anti-cancer compounds using libraries of approved drugs and bioactive compounds (AID 1345084); further: nearly all actives have a fitted effect of over 55% in size
- measurement context: Gynecologic cancer cell panel viability, ATPlite luminescence, 48 h; series mostly up to 57.5 µM
Results filed as inconclusive are left out. The source made the active and inactive calls. Calls follow the shape of the dose curve; as a rule, active = well fitted cell-killing curve with a large enough effect; inconclusive = small, poorly fitted or top-dose-only effect, or effect the other way; inactive = flat fitted curve, though single readings scatter. Where a SMILES comes first, the peptide text is derived from it. [ ]: non-standard residue; d: D form. pGlu = O=C1CC[C@@H](C(=O)O)N1; Thz = O=C(O)[C@@H]1CSCN1
Respond using exactly one of the listed classes: active, inactive

These solved cases illustrate the format of a correct answer.
molecule=COc1cc(CNC(=O)CCCC/C=C/C(C)C)ccc1O system_name=OV90 class_assignment=inactive
molecule=CC(=O)O[C@H]1C[C@@]2(C)[C@@H](C[C@@H](O)[C@H]3[C@@]4(C)CC[C@@H](O)[C@@H](C)[C@@H]4CC[C@@]32C)/C1=C(\CCC=C(C)C)C(=O)O system_name=OV90 class_assignment=inactive
molecule="CN1[C@@H]2CC[C@H]1CC(OC(=O)C(CO)c1ccccc1)C2 (some centres not stated)" system_name=OV90 class_assignment=inactive
molecule="O=C1CC[C@@H](C(=O)N2CSC[C@H]2C(=O)O)N1 ([pGlu]-[Thz]-OH)" system_name=OV90 class_assignment=inactive
molecule=Fc1ccc2[nH]c(CN3CCN(c4ccccn4)CC3)cc2c1 system_name=OV90 class_assignment=inactive

Q: Which outcome was entered for the molecule CCCCCCOc1ccccc1C(N)=O in this test?
Result: inactive

Q: Which outcome was entered for the molecule CCCOC(=O)c1ccc(O)cc1 in this test?
Result: inactive

Q: Which outcome was entered for the molecule [O-][n+]1ccccc1SSc1cccc[n+]1[O-] in this test?
Result: active

Q: Which outcome was entered for the molecule CC(C(=O)O)c1ccc(C(=O)c2ccccc2)s1 (configuration not stated) in this test?
Result: inactive

Q: Which outcome was entered for the molecule COC(=O)[C@H]1[C@H]2C[C@@H]3c4[nH]c5cc(OC)ccc5c4CCN3C[C@H]2C[C@@H](OC(=O)/C=C/c2cc(OC)c(OC)c(OC)c2)[C@@H]1OC in this test?
Result: inactive

Q: Which outcome was entered for the molecule CC1(C)S[C@@H]2[C@H](NC(=O)[C@H](NC(=O)N3CCN(S(C)(=O)=O)C3=O)c3ccccc3)C(=O)N2[C@H]1C(=O)O in this test?
Result: inactive

Q: Which outcome was entered for the molecule O=C(O)Cc1ccc(-c2ccccc2)cc1 in this test?
Result: inactive

Q: Which outcome was entered for the molecule CC1(C)S[C@@H]2[C@H](NC(=O)[C@H](N)c3ccc(O)cc3)C(=O)N2[C@H]1C(=O)O in this test?
Result: inactive

====

- System: CP191
- protocol details: qHTS profiling for inhibitors of Plasmodium falciparum proliferation (AID 504749); further: nearly all actives have a fitted effect of over 60% in size
- measurement context: P. falciparum in erythrocytes, SYBR Green DNA, 72 h; series mostly up to 28.7 µM
Results filed as inconclusive are left out. Calls of active or inactive are those of the source. Calls come from the whole dose curve; as a rule, active = well fitted inhibition curve with a large enough effect; inconclusive = small, poorly fitted or top-dose-only effect; inactive = flat fitted curve, though single readings scatter.
Respond using exactly one of the listed classes: active, inactive

Q: Which outcome was entered for the compound Oc1c(Br)cc(Br)c2cccnc12 in this test?
Result: inactive

Q: Which outcome was entered for the compound O=C(O)COc1ccc(C(=O)c2cccs2)c(Cl)c1Cl in this test?
Result: inactive

Q: Which outcome was entered for the compound Cc1ccc(O)c(-n2nc3ccccc3n2)c1 in this test?
Result: inactive

Q: Which outcome was entered for the compound CN1[C@@H]2CC[C@H]1CC(OC(=O)C(CO)c1ccccc1)C2 (stereo partly drawn) in this test?
Result: inactive

Q: Which outcome was entered for the compound O=C(Nc1ccc(C(=O)O)c(O)c1)c1ccccc1 in this test?
Result: inactive

Q: Which outcome was entered for the compound C=CC(N)CCC(=O)O (stereo not drawn) in this test?
Result: inactive

Q: Which outcome was entered for the compound O=C1CN(/N=C/c2ccc(-c3ccc([N+](=O)[O-])cc3)o2)C(=O)N1 in this test?
Result: active

Q: Which outcome was entered for the compound Cc1c(Nc2ncccc2C(=O)O)cccc1C(F)(F)F in this test?
Result: inactive

Q: Which outcome was entered for the compound CCCOC(=O)c1ccc(O)cc1 in this test?
Result: inactive

====

- system name: Metallo-beta-lactamase type 2 (Klebsiella pneumoniae)
- protocol details: qHTS to identify inhibitors of the New Delhi Metallo-beta-lactamase (NDM): assay validation screen against the NCATS LOPAC Collection (AID 1794843);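 further: nitrocefin turnover by NDM-1 measured as 485 nm absorbance at plateau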
- measurement context: NDM-1 enzyme, nitrocefin hydrolysis, absorbance 485 nm; series mostly up to 38.4 µM
Records with an inconclusive call do not appear. Calls of active or inactive are those of the source. Calls come from the whole dose curve; as a rule, active = well fitted curve in the direction sought with a large enough effect; inconclusive = small, poorly fitted or top-dose-only effect, or another doubt; inactive = no such curve, though single readings can be large or run the other way.
reported endpoint: outcome

// below: answered compounds
compound=CN1CCc2cc(NC(=O)Nc3cccnc3)ccc21 system_name="Metallo-beta-lactamase type 2 (Klebsiella pneumoniae)" measured_result=inactive
compound=CS(=O)(=O)c1ccc(-n2nc(C(F)(F)F)cc2-c2ccc(F)cc2)cc1 system_name="Metallo-beta-lactamase type 2 (Klebsiella pneumoniae)" measured_result=inactive
compound=O=Nc1ccc2oc(=O)ccc2c1 system_name="Metallo-beta-lactamase type 2 (Klebsiella pneumoniae)" measured_result=inactive
compound=CC(C)(C=O)Cc1cc(C(C)(C)C)c(O)c(C(C)(C)C)c1 system_name="Metallo-beta-lactamase type 2 (Klebsiella pneumoniae)" measured_result=inactive

As a next step, examine the compound that follows.
Quick note, outcome for CCN(CC)CCCCNc1ncc2cc(-c3c(Cl)cccc3Cl)c(NC(=O)NC(C)(C)C)nc2n1 landed at inactive

====

- protocol details: Natriuretic polypeptide receptor (hNpr1) antagonism - Pilot counterscreen GloSensor control cell line (AID 1347045)
- measurement context: HEK293 cGMP GloSensor cells, SNP-stimulated luminescence, 20 min; series mostly up to 38.3 µM
Results filed as inconclusive are left out. Active and inactive are the calls of the source. Calls follow the shape of the full dose curve.
reported endpoint: outcome

compound=N.N.O=C(O)C1(C(=O)O)CCC1.[Pt] measured_result=inactive
compound="Cc1ccc(C(=O)O[C@H](C(=O)O)[C@@H](OC(=O)c2ccc(C)cc2)C(=O)O)cc1 (tested in a mixture with another compound)" measured_result=inactive
compound=NC(=S)NCCC[C@H](N)C(=O)O measured_result=inactive

====

- System: PC26
- protocol details: qHTS profiling for inhibitors of Plasmodium falciparum proliferation (AID 504749); further: nearly all actives have a fitted effect of over 60% in size
- measurement context: P. falciparum in erythrocytes, SYBR Green DNA, 72 h; series mostly up to 28.7 µM
- Protocol: NIH National Institute of Allergy and Infectious Diseases [NIAID] NIH Chemical Genomics Center [NCGC] […] Because mature erythrocytes lack DNA, only Plasmodium-derived DNA is detected. NCGC Assay Protocol Summary: The SYBR Green viability assay was adapted from a method described previously (Plouffe et al., 2008). […] The following morning, fluorescence intensity at 485(14) nm excitation and 535(25) nm emission wavelengths was measured on an EnVision (Perkin Elmer) plate reader. […]
Records with an inconclusive call do not appear. The source made the active and inactive calls. Calls follow the shape of the dose curve; as a rule, active = well fitted inhibition curve with a large enough effect; inconclusive = small, poorly fitted or top-dose-only effect; inactive = flat fitted curve, though single readings scatter.
Respond using exactly one of the listed classes: TRUE (active), FALSE (inactive)

These solved cases illustrate the format of a correct answer.
compound=CC1(C)[C@@H](O)CC[C@]2(C)[C@H]3C(=O)C=C4[C@@H]5C[C@@](C)(C(=O)O)CC[C@]5(C)CC[C@@]4(C)[C@]3(C)CC[C@@H]12 class_assignment=FALSE
compound=C=C(Nc1ccc(OCC)cc1)Nc1ccc(OCC)cc1 class_assignment=FALSE
compound=Cc1nc2ccccc2n1Cc1ccc(Cl)cc1 class_assignment=FALSE
compound=CCCC(=O)OC[C@@H](OC(=O)CCC)[C@@H](OC(=O)CCC)[C@H](Cn1c2nc(=O)[nH]c(=O)c-2nc2cc(C)c(C)cc21)OC(=O)CCC class_assignment=FALSE
compound="CC(C(=O)O)c1ccc2c(c1)[nH]c1ccc(Cl)cc12 (configuration not stated)" class_assignment=FALSE
compound=O=C(O)COc1ccc(C(=O)c2cccs2)c(Cl)c1Cl class_assignment=FALSE

Q: Which outcome was entered for the compound O=C(O)[C@H](O)[C@@H](O)[C@H](O)[C@H](O)CO in this test?
Result: FALSE

Q: Which outcome was entered for the compound C=CCN1C(=O)C(CC(C)C)NC1=S (configuration not stated) in this test?
Result: FALSE

Q: Which outcome was entered for the compound O=C(O)c1ccccc1Nc1cccc(C(F)(F)F)c1 in this test?
Result: FALSE

Q: Which outcome was entered for the compound C=CCCCCCCCCC(=O)O in this test?
Result: FALSE

Q: Which outcome was entered for the compound C[S+](CC[C@H](N)C(=O)O)C[C@H]1O[C@@H](n2cnc3c(N)ncnc32)[C@H](O)[C@@H]1O (some centres not stated) in this test?
Result: FALSE

Q: Which outcome was entered for the compound O=C(O)[C@H](CC(=O)N1C[C@H]2CCCC[C@H]2C1)Cc1ccccc1 in this test?
Result: FALSE

Q: Which outcome was entered for the compound COc1ccc(/C=C/C(=O)Nc2ccccc2C(=O)O)cc1OC in this test?
Result: FALSE

Q: Which outcome was entered for the compound CCOC(=O)c1ccccc1O in this test?
Result: FALSE

Q: Which outcome was entered for the compound Cc1ccc(O)c(-n2nc3ccccc3n2)c1 in this test?
Result: FALSE
